- assaySystem: Muscarinic acetylcholine receptor M2 (Homo sapiens, UniProt P08172)
- Sequence (P08172 whole entry): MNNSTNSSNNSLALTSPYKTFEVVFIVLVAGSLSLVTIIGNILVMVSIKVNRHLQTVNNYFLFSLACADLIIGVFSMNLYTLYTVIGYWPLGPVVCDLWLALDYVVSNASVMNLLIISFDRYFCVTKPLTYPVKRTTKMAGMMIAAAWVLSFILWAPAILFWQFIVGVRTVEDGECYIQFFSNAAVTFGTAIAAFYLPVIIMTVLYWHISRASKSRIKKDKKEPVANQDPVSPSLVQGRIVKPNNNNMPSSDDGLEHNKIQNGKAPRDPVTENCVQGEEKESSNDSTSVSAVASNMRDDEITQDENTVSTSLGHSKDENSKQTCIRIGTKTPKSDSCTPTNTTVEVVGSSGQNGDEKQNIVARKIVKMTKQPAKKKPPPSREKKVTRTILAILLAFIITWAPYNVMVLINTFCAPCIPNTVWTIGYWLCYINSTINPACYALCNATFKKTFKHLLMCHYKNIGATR
valueKind: IC50

- smilesNotation: "CC(C)(O)c1ccc(N2Cc3c(ccnc3-c3ccc(F)cc3OCC(F)(F)F)C2=O)cc1"
  result: "> 10 µM"

* * *

- assaySystem: D(2) dopamine receptor (Homo sapiens, UniProt P14416)
- Sequence (P14416 whole entry): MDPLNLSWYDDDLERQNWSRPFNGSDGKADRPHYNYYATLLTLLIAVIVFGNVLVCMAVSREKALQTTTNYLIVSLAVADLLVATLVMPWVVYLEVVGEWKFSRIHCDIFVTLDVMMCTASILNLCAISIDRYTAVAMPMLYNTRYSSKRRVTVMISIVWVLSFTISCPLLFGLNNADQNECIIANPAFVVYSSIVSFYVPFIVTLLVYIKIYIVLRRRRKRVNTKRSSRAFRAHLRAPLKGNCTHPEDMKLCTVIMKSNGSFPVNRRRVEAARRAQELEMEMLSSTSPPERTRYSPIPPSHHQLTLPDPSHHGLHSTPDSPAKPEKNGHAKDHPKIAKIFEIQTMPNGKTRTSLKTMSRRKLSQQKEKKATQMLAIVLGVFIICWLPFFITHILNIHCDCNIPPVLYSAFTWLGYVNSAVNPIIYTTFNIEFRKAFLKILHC
pIC50: −log10 of the molar value.

- smilesNotation: "CC(C)(O)c1ccc(N2Cc3c(ccnc3-c3ccc(F)cc3OCC(F)(F)F)C2=O)cc1"
  pIC50: "< 5.00"

* * *

- assaySystem: UniProt P35367
- Sequence (P35367 whole entry): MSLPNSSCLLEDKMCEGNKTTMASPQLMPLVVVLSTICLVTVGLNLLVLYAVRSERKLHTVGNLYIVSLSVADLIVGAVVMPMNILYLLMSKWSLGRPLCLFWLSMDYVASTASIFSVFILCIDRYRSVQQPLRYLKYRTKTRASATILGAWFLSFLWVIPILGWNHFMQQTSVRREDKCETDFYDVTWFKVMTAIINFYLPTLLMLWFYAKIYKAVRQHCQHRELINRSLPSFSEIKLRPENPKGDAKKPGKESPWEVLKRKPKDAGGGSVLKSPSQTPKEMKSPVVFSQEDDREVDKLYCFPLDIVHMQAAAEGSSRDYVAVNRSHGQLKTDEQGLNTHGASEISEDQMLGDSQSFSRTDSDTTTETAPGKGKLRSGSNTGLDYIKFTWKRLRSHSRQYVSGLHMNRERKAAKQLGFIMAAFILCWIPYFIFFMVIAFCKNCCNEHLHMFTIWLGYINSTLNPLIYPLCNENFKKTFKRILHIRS
pIC50: −log10 of the molar value.

- smilesNotation: "CC(C)(O)c1ccc(N2Cc3c(ccnc3-c3ccc(F)cc3OCC(F)(F)F)C2=O)cc1"
  pIC50: "< 5.00"

* * *

Sequence of the target: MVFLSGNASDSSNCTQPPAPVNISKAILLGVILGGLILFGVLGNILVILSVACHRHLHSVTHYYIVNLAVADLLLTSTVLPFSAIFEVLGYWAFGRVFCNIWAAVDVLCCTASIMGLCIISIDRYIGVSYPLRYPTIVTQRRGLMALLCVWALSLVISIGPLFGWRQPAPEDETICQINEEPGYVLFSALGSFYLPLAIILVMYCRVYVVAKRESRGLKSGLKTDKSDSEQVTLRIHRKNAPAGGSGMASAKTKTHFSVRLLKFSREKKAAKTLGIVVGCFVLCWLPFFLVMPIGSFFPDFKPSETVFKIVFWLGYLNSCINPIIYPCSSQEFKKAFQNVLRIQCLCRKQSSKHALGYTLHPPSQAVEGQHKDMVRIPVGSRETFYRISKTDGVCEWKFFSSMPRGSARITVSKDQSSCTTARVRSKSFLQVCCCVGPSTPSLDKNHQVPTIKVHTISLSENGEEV
pIC50: −log10 of the molar value.

- smilesNotation: "CC(C)(O)c1ccc(N2Cc3c(ccnc3-c3ccc(F)cc3OCC(F)(F)F)C2=O)cc1"
  pIC50: "< 5.00"

* * *

- assaySystem: Beta-2 adrenergic receptor (Homo sapiens, UniProt P07550)
- Sequence (P07550 whole entry): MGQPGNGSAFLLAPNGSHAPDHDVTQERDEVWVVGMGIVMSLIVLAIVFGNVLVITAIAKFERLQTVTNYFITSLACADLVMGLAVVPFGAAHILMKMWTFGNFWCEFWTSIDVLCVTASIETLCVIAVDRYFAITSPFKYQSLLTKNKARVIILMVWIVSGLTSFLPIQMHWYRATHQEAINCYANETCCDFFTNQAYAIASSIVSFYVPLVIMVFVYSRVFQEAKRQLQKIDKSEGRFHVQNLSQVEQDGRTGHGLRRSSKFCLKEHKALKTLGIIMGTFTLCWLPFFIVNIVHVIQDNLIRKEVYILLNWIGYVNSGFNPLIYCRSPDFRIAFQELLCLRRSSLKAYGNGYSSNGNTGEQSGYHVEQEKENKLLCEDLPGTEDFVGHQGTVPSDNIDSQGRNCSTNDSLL
valueKind: IC50

- smilesNotation: "CC(C)(O)c1ccc(N2Cc3c(ccnc3-c3ccc(F)cc3OCC(F)(F)F)C2=O)cc1"
  assaySystem: "Beta-2 adrenergic receptor (Homo sapiens, UniProt P07550)"
  valueKind: "IC50"
  result: "> 10 µM"

* * *

- assaySystem: Acetylcholinesterase (Homo sapiens)
- Sequence (P22303 whole entry): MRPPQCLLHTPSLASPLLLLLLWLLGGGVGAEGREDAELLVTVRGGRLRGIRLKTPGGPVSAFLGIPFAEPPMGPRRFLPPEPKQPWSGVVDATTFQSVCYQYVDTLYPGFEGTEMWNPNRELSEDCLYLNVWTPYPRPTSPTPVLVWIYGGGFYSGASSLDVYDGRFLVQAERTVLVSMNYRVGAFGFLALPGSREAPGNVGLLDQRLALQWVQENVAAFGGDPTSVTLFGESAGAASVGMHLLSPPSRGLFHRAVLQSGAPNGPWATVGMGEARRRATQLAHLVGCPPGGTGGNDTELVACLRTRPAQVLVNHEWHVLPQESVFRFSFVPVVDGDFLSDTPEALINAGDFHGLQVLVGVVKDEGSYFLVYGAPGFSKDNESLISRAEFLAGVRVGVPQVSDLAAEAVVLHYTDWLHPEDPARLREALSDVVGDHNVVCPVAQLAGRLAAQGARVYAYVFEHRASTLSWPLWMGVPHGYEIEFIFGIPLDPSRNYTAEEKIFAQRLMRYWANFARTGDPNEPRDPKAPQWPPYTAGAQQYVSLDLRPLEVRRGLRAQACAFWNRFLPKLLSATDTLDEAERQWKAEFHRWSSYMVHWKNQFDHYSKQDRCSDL
pIC50: −log10 of the molar value.
valueKind: pIC50

- smilesNotation: "CC(C)(O)c1ccc(N2Cc3c(ccnc3-c3ccc(F)cc3OCC(F)(F)F)C2=O)cc1"
  valueKind: "pIC50"
  result: "< 5.00"

* * *

- assaySystem: 5-hydroxytryptamine receptor 2A (Homo sapiens, UniProt P28223)
- Sequence (P28223 whole entry): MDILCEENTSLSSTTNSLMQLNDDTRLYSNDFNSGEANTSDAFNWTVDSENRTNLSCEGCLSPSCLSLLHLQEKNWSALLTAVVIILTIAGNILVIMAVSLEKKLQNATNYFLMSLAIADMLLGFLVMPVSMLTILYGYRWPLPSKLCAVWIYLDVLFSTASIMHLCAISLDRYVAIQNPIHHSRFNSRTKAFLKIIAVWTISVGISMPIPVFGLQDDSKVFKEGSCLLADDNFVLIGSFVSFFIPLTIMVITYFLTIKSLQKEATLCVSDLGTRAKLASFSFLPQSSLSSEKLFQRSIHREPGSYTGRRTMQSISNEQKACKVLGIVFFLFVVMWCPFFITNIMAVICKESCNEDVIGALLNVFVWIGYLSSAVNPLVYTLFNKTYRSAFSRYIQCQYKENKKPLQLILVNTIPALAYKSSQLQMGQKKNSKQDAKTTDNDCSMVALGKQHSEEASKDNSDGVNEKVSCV

- smilesNotation: "CC(C)(O)c1ccc(N2Cc3c(ccnc3-c3ccc(F)cc3OCC(F)(F)F)C2=O)cc1"
  IC50: "> 10 µM"

* * *

- assaySystem: Voltage-gated potassium channel, IKs; KCNQ1(Kv7.1)/KCNE1(MinK) (Homo sapiens, UniProt P15382+P51787)
- assayDetails: Safety47 Scan (DiscoverX - Eurofins)
pIC50: −log10 of the molar value.
valueKind: pIC50

- smilesNotation: "CC(C)(O)c1ccc(N2Cc3c(ccnc3-c3ccc(F)cc3OCC(F)(F)F)C2=O)cc1"
  valueKind: "pIC50"
  result: "< 5.00"

* * *

- assaySystem: 5-hydroxytryptamine receptor 1A (Homo sapiens)
- Sequence (P08908 whole entry): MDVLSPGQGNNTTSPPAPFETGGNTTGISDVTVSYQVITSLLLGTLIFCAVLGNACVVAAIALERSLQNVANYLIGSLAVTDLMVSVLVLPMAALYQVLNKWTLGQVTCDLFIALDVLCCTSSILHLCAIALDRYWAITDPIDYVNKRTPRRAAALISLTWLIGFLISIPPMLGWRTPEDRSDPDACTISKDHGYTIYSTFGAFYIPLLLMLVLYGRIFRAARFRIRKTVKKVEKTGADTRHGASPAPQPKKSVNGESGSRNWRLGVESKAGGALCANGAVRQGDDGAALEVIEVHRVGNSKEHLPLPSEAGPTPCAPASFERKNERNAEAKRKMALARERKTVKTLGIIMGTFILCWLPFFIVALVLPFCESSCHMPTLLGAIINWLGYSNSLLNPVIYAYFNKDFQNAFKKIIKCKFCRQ

- smilesNotation: "CC(C)(O)c1ccc(N2Cc3c(ccnc3-c3ccc(F)cc3OCC(F)(F)F)C2=O)cc1"
  assaySystem: "5-hydroxytryptamine receptor 1A (Homo sapiens)"
  IC50: "> 10 µM"

* * *

- assaySystem: Mu-type opioid receptor (Homo sapiens, UniProt P35372)
- Sequence (P35372 whole entry): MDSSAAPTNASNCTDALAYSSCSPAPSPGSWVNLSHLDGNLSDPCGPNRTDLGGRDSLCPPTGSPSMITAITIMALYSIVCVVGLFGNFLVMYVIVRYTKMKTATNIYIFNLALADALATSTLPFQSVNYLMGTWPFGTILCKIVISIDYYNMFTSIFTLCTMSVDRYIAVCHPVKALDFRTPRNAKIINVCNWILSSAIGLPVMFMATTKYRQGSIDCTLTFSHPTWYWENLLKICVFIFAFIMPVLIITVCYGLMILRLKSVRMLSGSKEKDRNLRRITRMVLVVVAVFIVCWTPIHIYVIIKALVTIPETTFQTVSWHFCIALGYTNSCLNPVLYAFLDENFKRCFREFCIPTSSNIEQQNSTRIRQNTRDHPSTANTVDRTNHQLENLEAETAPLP
- assayDetails: Safety47 Scan (DiscoverX - Eurofins)

- smilesNotation: "CC(C)(O)c1ccc(N2Cc3c(ccnc3-c3ccc(F)cc3OCC(F)(F)F)C2=O)cc1"
  EC50: "> 10 µM"

* * *

- assaySystem: D(1A) dopamine receptor (Homo sapiens, UniProt P21728)
- Sequence (P21728 whole entry): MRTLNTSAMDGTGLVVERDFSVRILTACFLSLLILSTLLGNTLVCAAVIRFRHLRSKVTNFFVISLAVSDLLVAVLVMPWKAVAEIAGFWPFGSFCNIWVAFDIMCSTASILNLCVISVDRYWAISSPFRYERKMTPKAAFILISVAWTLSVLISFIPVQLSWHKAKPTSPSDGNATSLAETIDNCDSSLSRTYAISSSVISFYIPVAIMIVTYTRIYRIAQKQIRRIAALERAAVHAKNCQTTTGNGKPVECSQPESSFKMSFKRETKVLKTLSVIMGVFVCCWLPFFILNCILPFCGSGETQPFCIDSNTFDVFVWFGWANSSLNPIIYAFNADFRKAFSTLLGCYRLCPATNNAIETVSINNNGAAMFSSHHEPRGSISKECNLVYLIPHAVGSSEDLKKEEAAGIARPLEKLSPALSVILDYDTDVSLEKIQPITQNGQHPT

- smilesNotation: "CC(C)(O)c1ccc(N2Cc3c(ccnc3-c3ccc(F)cc3OCC(F)(F)F)C2=O)cc1"
  IC50: "> 10 µM"

* * *

- assaySystem: Muscarinic acetylcholine receptor M1 (Homo sapiens)
pIC50: −log10 of the molar value.
valueKind: pIC50

- smilesNotation: "CC(C)(O)c1ccc(N2Cc3c(ccnc3-c3ccc(F)cc3OCC(F)(F)F)C2=O)cc1"
  result: "< 5.00"

* * *

- assaySystem: Neuronal acetylcholine receptor; alpha4/beta2 (Homo sapiens, UniProt P17787+P43681)
- Sequence (P17787 whole entry): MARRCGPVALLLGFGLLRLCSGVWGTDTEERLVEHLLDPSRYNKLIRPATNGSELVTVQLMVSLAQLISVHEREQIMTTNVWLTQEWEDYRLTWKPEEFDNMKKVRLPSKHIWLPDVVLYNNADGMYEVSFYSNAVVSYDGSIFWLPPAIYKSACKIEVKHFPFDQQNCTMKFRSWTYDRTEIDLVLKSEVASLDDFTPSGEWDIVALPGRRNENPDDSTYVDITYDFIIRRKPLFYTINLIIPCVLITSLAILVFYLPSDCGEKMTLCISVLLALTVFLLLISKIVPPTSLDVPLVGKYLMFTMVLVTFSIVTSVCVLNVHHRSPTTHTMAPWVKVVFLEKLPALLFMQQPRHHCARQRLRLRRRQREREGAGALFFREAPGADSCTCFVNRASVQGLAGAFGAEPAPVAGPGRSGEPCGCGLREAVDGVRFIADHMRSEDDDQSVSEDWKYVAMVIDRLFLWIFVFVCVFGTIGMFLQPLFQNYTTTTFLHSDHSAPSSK
- Sequence (P43681 whole entry): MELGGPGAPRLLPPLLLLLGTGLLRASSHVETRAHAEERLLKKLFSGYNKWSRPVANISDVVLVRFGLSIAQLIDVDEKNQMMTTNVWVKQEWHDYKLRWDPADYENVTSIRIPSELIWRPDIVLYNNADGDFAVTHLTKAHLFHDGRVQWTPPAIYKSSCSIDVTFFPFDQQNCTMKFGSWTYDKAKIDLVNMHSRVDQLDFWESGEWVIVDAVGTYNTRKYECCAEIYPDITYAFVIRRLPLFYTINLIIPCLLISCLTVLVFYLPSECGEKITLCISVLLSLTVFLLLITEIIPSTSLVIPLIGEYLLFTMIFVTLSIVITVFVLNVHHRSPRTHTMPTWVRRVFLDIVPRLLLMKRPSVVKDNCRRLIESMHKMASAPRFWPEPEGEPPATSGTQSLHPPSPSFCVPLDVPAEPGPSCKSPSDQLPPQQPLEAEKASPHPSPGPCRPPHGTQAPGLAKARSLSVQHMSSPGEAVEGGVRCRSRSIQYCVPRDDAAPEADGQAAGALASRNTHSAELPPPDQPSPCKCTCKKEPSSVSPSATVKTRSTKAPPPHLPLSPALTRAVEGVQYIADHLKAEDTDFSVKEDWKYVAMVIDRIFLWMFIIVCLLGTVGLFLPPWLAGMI
- assayDetails: Safety47 Scan (DiscoverX - Eurofins)
pIC50: −log10 of the molar value.

- smilesNotation: "CC(C)(O)c1ccc(N2Cc3c(ccnc3-c3ccc(F)cc3OCC(F)(F)F)C2=O)cc1"
  assaySystem: "Neuronal acetylcholine receptor; alpha4/beta2 (Homo sapiens, UniProt P17787+P43681)"
  pIC50: 5.19

* * *

- assaySystem: Muscarinic acetylcholine receptor M2 (Homo sapiens)
- assayDetails: Safety47 Scan (DiscoverX - Eurofins)

- smilesNotation: "CC(C)(O)c1ccc(N2Cc3c(ccnc3-c3ccc(F)cc3OCC(F)(F)F)C2=O)cc1"
  EC50: "> 10 µM"

* * *

- assaySystem: UniProt P25101
- Sequence (P25101 whole entry): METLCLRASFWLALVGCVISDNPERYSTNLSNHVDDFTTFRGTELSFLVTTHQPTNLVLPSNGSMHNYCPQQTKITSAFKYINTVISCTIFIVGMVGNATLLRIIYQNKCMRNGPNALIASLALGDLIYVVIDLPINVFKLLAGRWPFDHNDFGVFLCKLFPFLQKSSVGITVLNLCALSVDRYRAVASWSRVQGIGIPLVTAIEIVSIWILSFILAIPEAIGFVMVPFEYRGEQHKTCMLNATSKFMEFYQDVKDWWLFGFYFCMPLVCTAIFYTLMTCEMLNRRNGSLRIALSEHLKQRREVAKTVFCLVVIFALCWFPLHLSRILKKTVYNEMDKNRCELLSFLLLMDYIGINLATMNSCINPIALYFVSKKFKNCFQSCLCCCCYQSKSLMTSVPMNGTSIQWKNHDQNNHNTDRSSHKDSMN

- smilesNotation: "CC(C)(O)c1ccc(N2Cc3c(ccnc3-c3ccc(F)cc3OCC(F)(F)F)C2=O)cc1"
  IC50: "> 10 µM"

* * *

- assaySystem: Glutamate NMDA receptor; GRIN1/GRIN2B (Homo sapiens, UniProt Q05586+Q13224)
- assayDetails: Safety47 Scan (DiscoverX - Eurofins)
- assaySetup: target entry is the homologue from another species
valueKind: EC50

- smilesNotation: "CC(C)(O)c1ccc(N2Cc3c(ccnc3-c3ccc(F)cc3OCC(F)(F)F)C2=O)cc1"
  result: "> 10 µM"

* * *

- assaySystem: Beta-1 adrenergic receptor (Homo sapiens, UniProt P08588)
- Sequence (P08588 whole entry): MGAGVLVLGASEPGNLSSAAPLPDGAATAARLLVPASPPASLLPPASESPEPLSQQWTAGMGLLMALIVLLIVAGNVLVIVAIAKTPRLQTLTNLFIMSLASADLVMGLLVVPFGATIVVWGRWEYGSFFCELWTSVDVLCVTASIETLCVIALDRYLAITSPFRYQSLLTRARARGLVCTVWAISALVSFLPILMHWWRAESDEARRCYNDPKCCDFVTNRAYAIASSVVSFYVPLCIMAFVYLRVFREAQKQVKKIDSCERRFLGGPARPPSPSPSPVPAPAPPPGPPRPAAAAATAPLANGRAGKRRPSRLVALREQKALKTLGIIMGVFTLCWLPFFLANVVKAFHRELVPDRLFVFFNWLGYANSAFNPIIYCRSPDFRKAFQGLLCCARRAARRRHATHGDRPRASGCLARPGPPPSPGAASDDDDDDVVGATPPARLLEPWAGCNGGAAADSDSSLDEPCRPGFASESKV
- assayDetails: Safety47 Scan (DiscoverX - Eurofins)
pEC50: −log10 of the molar value.

- smilesNotation: "CC(C)(O)c1ccc(N2Cc3c(ccnc3-c3ccc(F)cc3OCC(F)(F)F)C2=O)cc1"
  pEC50: "< 5.00"

* * *

- assaySystem: Voltage-dependent L-type calcium channel subunit alpha-1C (Homo sapiens)
- assayDetails: Safety47 Scan (DiscoverX - Eurofins)
- Design: species or system Rattus norvegicus
- assaySetup: target entry is the homologue from another species

- smilesNotation: "CC(C)(O)c1ccc(N2Cc3c(ccnc3-c3ccc(F)cc3OCC(F)(F)F)C2=O)cc1"
  assaySystem: "Voltage-dependent L-type calcium channel subunit alpha-1C (Homo sapiens)"
  IC50: "> 10 µM"
